Hey, just so you know, these numbers are from paper PMC12136788.

EXPERIMENTAL TARGET: T1, UNK ZnF1-3 (human, UniProt Q9C0B0 31-174)
T1 sequence: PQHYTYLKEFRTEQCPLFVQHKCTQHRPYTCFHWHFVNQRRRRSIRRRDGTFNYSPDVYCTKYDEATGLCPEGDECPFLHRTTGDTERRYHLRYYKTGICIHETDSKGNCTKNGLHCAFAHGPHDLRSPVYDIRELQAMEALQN
ASSAY: nsRBNS (natural sequence RNA bind-n-seq); RBNS binding buffer (assumed for nsRBNS): 25 mM Tris pH 7.5, 150 mM KCl, 3 mM MgCl2, 0.01% Triton X-100, 500 ug/ml BSA, 20 U/ml SUPERase-In, 4 C; UNK is unkempt and MSI1 is Musashi-1; names of the RNAs are library labels; protein concentration not given here; high values mean tight binding
The full ranking holds about 24,000 sequences; the median of “enrichment r” is about 0.99, and the highest 2% start at about 3.7. Many of the other results were omitted from the sample, so the highest values are more common in it than they were.
Record form. Attribute: binding signal. Fill in for each entry.
Give bare numbers, in enrichment R.

[[record]]
binder = "chr1:169302553:169302554:-_ENSMUSG00000026688_ENSMUST00000028005|mus_mus|FALSE|FALSE (ssRNA) RNA: GGGAGUUCUACAGUCCGACGAUCAUGCAGGCAGGAGCUUUAGGUAUGAGGCUGAUGCCAGAUAAGUUUUUAUUAUAUUAAAAAAAAAAAAAAAACCAGUGCAACUGGAAAUCAGGGUGAGUCGCUGGAGGUGAGUGAGAGUCGCAACAGAGGAUUGAGCAUCA"
numeric_result = 7.4


Data request: Fill in the blank: the reported binding signal of chr16:94664741:94664742:+_ENSMUSG00000040785_ENSMUST00000117648|mus_hu|mus_mus_mus_hu_False|1_78 (ssRNA) RNA: GGGAGUUCUACAGUCCGACGAUCUGGUACUGAUCUUGGUAGCUGAUAUUCAGGAGAAAUGUUGGCCAAGGGUGUAUAUAUGCUGGUGUACUGGGGCAAACCUGGUAACACGUUUAUGUAUGCUGGCGGUGUCUGGGUGCCAAACAACAGAGGAUUGAGCAUCA is ____.
Data returned: 0.93
